Hey, just so you know, these numbers are from patent US20190040102A1.

- Target Desc: somatostatin receptor type 2 (SSTR2) (UniProt P30874 1-369)
- Sequence (P30874 whole entry): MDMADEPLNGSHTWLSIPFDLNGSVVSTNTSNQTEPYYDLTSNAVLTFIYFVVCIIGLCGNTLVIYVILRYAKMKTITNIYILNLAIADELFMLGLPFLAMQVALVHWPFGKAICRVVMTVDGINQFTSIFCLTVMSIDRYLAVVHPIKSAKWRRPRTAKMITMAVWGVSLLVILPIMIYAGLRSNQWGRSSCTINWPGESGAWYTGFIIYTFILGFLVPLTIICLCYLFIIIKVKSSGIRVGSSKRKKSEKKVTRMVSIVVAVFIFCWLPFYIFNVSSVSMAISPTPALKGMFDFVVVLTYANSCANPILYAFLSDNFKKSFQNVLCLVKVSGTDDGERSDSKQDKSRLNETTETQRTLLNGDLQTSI
- Test Summary: cell-based or functional assay
Positions of bridges follow the written chain, without caps; N, C: chain ends. Non-standard residues stand in square brackets, D forms with d. dPhe(4-CONH2) = NC(=O)c1ccc(C[C@@H](N)C(=O)O)cc1; Phe(4-Cl) = N[C@@H](Cc1ccc(Cl)cc1)C(=O)O; dCit = NC(=O)NCCC[C@@H](N)C(=O)O
This section presents binders with their documented IC50 (PathHunter β-Arrestin, antagonist mode) values.
Express the result in nM but write the number alone.

XXFXKTCX (HELM PEPTIDE1{[N[C@@H](Cc1ccc(Cl)cc1)C(=O)[*:2]].[dC].F.[NC(=O)c1ccc(C[C@@H](N[*:1])C(=O)[*:2])cc1].K.T.C.[dY].[am]}$PEPTIDE1,PEPTIDE1,2:R3-7:R3$$$V2.0; SMILES C[C@@H](O)[C@@H]1NC(=O)[C@H](CCCCN)NC(=O)[C@@H](Cc2ccc(C(N)=O)cc2)NC(=O)[C@H](Cc2ccccc2)NC(=O)[C@H](NC(=O)[C@@H](N)Cc2ccc(Cl)cc2)CSSC[C@@H](C(=O)N[C@H](Cc2ccc(O)cc2)C(N)=O)NC1=O) [Compound 35: H-Cpa-cyclo[DCys-Phe-D-(4-carbamoyl)Phe-Lys-Thr-Cys]-DTyr-NH2] :: 35.9
H-[Phe(4-Cl)][dC]Y[dCit]K(Me)TC[dY]-NH2 (disulfide 2-7; SMILES CNCCCC[C@@H]1NC(=O)[C@@H](CCCNC(N)=O)NC(=O)[C@H](Cc2ccc(O)cc2)NC(=O)[C@H](NC(=O)[C@@H](N)Cc2ccc(Cl)cc2)CSSC[C@@H](C(=O)N[C@H](Cc2ccc(O)cc2)C(N)=O)NC(=O)[C@H]([C@@H](C)O)NC1=O) [Compound 31: H-Cpa-cyclo[DCys-Tyr-D-Cit-(N-Me)Lys-Thr-Cys]-DTyr-NH2] :: 70.4
XXYXKTCX (HELM PEPTIDE1{[N[C@@H](Cc1ccc(Cl)cc1)C(=O)[*:2]].[dC].Y.[CCCCCNc1ccc(C[C@@H](N[*:1])C(=O)[*:2])cc1].K.T.C.[dY].[am]}$PEPTIDE1,PEPTIDE1,2:R3-7:R3$$$V2.0; SMILES CCCCCNc1ccc(C[C@H]2NC(=O)[C@H](Cc3ccc(O)cc3)NC(=O)[C@H](NC(=O)[C@@H](N)Cc3ccc(Cl)cc3)CSSC[C@@H](C(=O)N[C@H](Cc3ccc(O)cc3)C(N)=O)NC(=O)[C@H]([C@@H](C)O)NC(=O)[C@H](CCCCN)NC2=O)cc1) [Compound 12: H-Cpa-cyclo[D-Cys-Tyr-D-Phe(4-n-pentylamino)-Lys-Thr-Cys]-D-Tyr-NH2] :: 17
H-[Phe(4-Cl)][dC]Y[dAph(2-(4-morpholinyl)ethyl)]KTC[dY]-NH2 (disulfide 2-7) [Compound 11: H-Cpa-cyclo[DCys-Tyr-D-4-(2-(4-morpholinyl)ethyl)Aph-Lys-Thr-Cys]-DTyr-NH2] :: 243

Note: attention shifts to another entry.
## Task For H-[Phe(4-Cl)][dC][Phe(4-Cl)][dPhe(4-CONH2)]KTC[dY]-NH2 (disulfide 2-7; SMILES C[C@@H](O)[C@@H]1NC(=O)[C@H](CCCCN)NC(=O)[C@@H](Cc2ccc(C(N)=O)cc2)NC(=O)[C@H](Cc2ccc(Cl)cc2)NC(=O)[C@H](NC(=O)[C@@H](N)Cc2ccc(Cl)cc2)CSSC[C@@H](C(=O)N[C@H](Cc2ccc(O)cc2)C(N)=O)NC1=O) [Compound 36: H-Cpa-cyclo[DCys-Cpa-D-(4-carbamoyl)Phe-Lys-Thr-Cys]-DTyr-NH2] , what is its reported IC50 (PathHunter β-Arrestin, antagonist mode)?
## Result 28.7
